Reported MIC90 values for a set of molecules
System: Mycobacterium tuberculosis
measurement notes: microbe, parasite or virus in culture
assay conditions: H37Rv, 168 h
Expressed in µg/mL, but write only the number.

Examples from the recorded data:
query smiles	MIC90 / µg/mL
O=c1oc2cc(O)ccc2c2oc3ccc(O)c(CNC4CCCCC4)c3c12	0.25
CC(C)CCN1COc2ccc3oc4c5ccc(O)cc5oc(=O)c4c3c2C1	0.0625

Reported MIC90 for O=c1oc2cc(O)ccc2c2oc3ccc(O)c(CN4CCC(Br)CC4)c3c12 : what is it?
0.125

---

Tested on: Mycobacterium tuberculosis
measurement notes: microbe, parasite or virus in culture
assay conditions: H37Rv, 168 h
quantity kind: MIC90 (µg/mL)
Only the number, expressed in µg/mL, is required.

Illustrative cases are given below, each with its answer.
molecule	unit of measurement	MIC90
CO[C@H]1/C=C/O[C@@]2(C)Oc3c(C)c(O)c4c(O)c(c(/C=N/N5CCN(C)CC5)c(O)c4c3C2=O)NC(=O)/C(C)=C\C=C\[C@H](C)[C@H](O)[C@@H](C)[C@@H](O)[C@@H](C)[C@H](OC(C)=O)[C@@H]1C [RIFAMPIN]	µg/mL	0.125
O=c1oc2cc(O)ccc2c2oc3ccc(O)c(CN4CC[C@H](F)C4)c3c12	µg/mL	0.125
O=c1oc2cc(O)ccc2c2oc3ccc(O)c(CNC4CCCC4)c3c12	µg/mL	0.0039
O=c1oc2cc(O)ccc2c2oc3ccc(O)c(CN4CCC(F)CC4)c3c12	µg/mL	0.0625
CC1(C)CCN(Cc2c(O)ccc3oc4c5ccc(O)cc5oc(=O)c4c23)CC1	µg/mL	0.25

What measured MIC90 is associated with CC[C@@H](CO)NCCN[C@@H](CC)CO [ETHAMBUTOL] on Mycobacterium tuberculosis?
1

Lookup: MIC90 / Mycobacterium tuberculosis / CC(C)CCNCc1c(O)ccc2oc3c4ccc(O)cc4oc(=O)c3c12
0.125

Query the reported MIC90 for Mycobacterium tuberculosis; item: NNC(=O)c1ccncc1 [ISONIAZID]
0.04

Identify the measured MIC90 of O=c1oc2cc(O)ccc2c2oc3ccc(O)c(CNCc4ccccc4)c3c12 for Mycobacterium tuberculosis.
1

Form entry - test system: Mycobacterium tuberculosis; read-out: MIC90; molecule: O=c1oc2cc(O)ccc2c2oc3ccc(O)c(CN4CCCC(F)C4)c3c12 (stereo not given)
0.25

Entry O=c1oc2cc(O)ccc2c2oc3ccc4c(c3c12)CN(C1CCCC1)CO4 , system Mycobacterium tuberculosis: what MIC90 was measured?
0.0039

# value lookup — system Mycobacterium tuberculosis, readout MIC90, item O=c1oc2cc(O)ccc2c2oc3ccc(O)c(CN4CCCCC4)c3c12
0.0039

Test system Mycobacterium tuberculosis; read-out MIC90; what value for O=c1oc2cc(O)ccc2c2oc3ccc(O)c(CN4CCC(F)(F)CC4)c3c12 ?
1
